# Tested on: porcine scleral tissue
# Protocol Description: scleral tissue cross-linking of cut porcine scleral pieces, shift in Tm by DSC
# Test Settings: 25 mM, pH 7.4, 30 mins
Listed next: entries and their corresponding ΔTm of scleral tissue.
Experimental Readout: ΔTm of scleral tissue

Compound	Experimental Value
O=[N+]([O-])C(Br)(CO)CO [BP, 2-bromo-2-nitro-1,3-propanediol, reference compound]	~0.5 °C
CCC12COCN1COC2 [OCT]	~0.5 °C

These data points were gathered from patent US10105350B2.
